Source: patent US20230026869A1

- protocol-text: Metabolic stability in human liver microsomes
- Type: in vitro ADME
- settings: Human liver microsomes, 1 μM compound, 0.5 mg/mL
assay-readout: half-life at 1 μM

Prompt: Name the reported half-life at 1 μM value associated with the molecule CC1(NC(=O)C(=O)c2c(Cl)c(C(=O)Nc3cc(F)c(F)c(F)c3)c3n2CCC3)CCC(CC(=O)O)CC1 (stereo not shown)
Completion: > 2.42 h

----------
- protocol-text: Liver-to-blood ratio in Balb/c mice orally administered with the test compound
- Assay type: in vivo
- settings: mouse; Plasma; Balb/c female mice, oral administration, 3 mg/kg
assay-readout: AUC(0-t)
Please answer in the form of a number followed by its unit of measurement.

Prompt: Name the reported AUC(0-t) value associated with the compound CC1(NC(=O)C(=O)c2c(Cl)c(C(=O)Nc3cc(F)c(F)c(F)c3)c3n2CCC3)CCC(CC(=O)O)CC1 (stereo not shown) [Compound of formula (I)]
Completion: 3.48 µM·h
